Target: T1, hCLEC12B (human, UniProt Q2HXU8 1-276)
T1 construct: Overexpressed on HEK293 cells
T1 sequence: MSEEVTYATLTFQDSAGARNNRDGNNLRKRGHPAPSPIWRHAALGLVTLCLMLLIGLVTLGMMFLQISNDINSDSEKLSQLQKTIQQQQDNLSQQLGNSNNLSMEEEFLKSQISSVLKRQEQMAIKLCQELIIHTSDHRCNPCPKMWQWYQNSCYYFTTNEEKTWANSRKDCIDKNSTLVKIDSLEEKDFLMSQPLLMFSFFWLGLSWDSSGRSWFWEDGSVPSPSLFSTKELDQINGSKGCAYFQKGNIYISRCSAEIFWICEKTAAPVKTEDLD
Experiment: flow cytometry, HEK293 transfectants, 100 nM antibody;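 note: antibody applied at a saturating level and incubated with cells for 30 min at room temperature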
Endpoint label: % of CD161 binding (%)
State the answer as a number, implicitly in %.

Ask: Any idea what % of CD161 binding was measured for Ab18 (antibody, human IgG1, V domains shown, IgG purified from yeast culture) VH: QVQLVESGGGLVKPGGSLRLSCAASGFTFSQYYMSWIRQAPGKGLEWVSYISPSGATIAYADSVKGRFTISRDNAKNSLYLQMNSLRAEDTAVYYCARSLMATGTHLYFDLWGRGTLVTVSS VL: DIQLTQSPSSVSASVGDRVTITCRASQGISSWLAWYQQKPGKAPKLLIYAAESLQSGVPSRFSGSGSGTDFTLTISSLQPEDFATYYCQQVTSQPPYTFGGGTKVEIK ?
Result: 0.169
